Test system: Abp1 PPIs
Assay: DHFR-PCA of Abp1 SH3-swapped baits (Fig. 2B-D, S2C, S2F)
Type: cell-based, Saccharomyces cerevisiae
Details: distance to Abp1 bait with SLA1-2 SH3; sheet Fig2C
Kindly state Protein-protein interaction distance between Abp1 SH3-swapped baits, to SLA1-2 for each of the entries shown.

{"molecule": "LSB1 (protein, UniProt P53281 2-241, looked up) LAS seventeen-binding protein …: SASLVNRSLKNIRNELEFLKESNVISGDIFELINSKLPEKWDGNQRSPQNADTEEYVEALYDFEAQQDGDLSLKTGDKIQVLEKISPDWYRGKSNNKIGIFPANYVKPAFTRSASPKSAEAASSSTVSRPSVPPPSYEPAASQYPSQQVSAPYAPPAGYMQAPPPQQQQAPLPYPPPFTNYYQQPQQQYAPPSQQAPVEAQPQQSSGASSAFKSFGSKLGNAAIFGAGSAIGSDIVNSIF", "reported_measurement": 24.03}

Give Protein-protein interaction distance between Abp1 SH3-swapped baits, to SLA1-2 for each listed item.
1. PIN3 (protein, UniProt Q06449 2-215, looked up) [PSI+] inducibility protein 3: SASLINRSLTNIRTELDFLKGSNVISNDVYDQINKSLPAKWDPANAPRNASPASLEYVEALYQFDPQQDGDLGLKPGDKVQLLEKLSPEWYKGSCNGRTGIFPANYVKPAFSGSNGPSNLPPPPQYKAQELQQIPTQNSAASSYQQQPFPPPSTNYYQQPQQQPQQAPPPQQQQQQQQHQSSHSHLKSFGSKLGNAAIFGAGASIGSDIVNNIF
2. SHO1 (protein, UniProt P40073 1-367, looked up) High osmolarity signaling …: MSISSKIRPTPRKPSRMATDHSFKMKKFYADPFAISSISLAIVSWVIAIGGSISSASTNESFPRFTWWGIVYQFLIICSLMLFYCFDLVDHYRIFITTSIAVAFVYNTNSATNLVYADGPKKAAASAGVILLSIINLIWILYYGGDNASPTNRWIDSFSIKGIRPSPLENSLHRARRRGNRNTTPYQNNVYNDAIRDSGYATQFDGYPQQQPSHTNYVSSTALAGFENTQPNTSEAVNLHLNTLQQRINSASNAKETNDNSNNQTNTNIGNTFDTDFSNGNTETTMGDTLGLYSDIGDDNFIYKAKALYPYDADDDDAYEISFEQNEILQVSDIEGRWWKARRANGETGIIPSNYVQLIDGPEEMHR

**A:**
1: 21.49; 2: 16.55

The origin of these recorded values is paper PMC7954794.
